binders and their reported Anti-PSMA Fab signal in the presence of PSMA
biological target: T1, Anti-PSMA Fab (SEQ ID NOs: 19, 20); experiment: phage binding ELISA; PSMA Fab on plate pre-incubated with PSMA antigen as competitor, anti-M13-HRP detection
T1 construct: Biotinylated and captured on neutravidin coated plates in the phage ELISA; also called 006 PSMA Fab
Reply with just the number.

[[record]]
binder = "ELQRCTPWWMCFDV [Phage-2027]"
value_measured = 0.0689

[[record]]
binder = "DIKWCIPPWMCQVE [Phage-2032]"
value_measured = 0.0691


Now for the binder whose Anti-PSMA Fab signal in the presence of PSMA we want.
INPUT: Retrieve Anti-PSMA Fab signal in the presence of PSMA measured for EAKWCIPAWMCEDA [Phage-2036] and print it.
OUTPUT: 0.0685
